procedureDetails: in vivo
runParameters: male, Gottingen, minipig, in vivo, sc, 0.04 ug/kg, Cmax
measureName: Cmax (pg/mL)
The response must be a number in pg/mL with no trailing unit.

Give its Cmax value. Item: OCc1cc(C(O)CNCCCCCCOCCCCc2ccccc2)ccc1O (racemic)
2.77

====

procedureDetails: Plasma pharmacokinetics following a single intravenous and subcutaneous injection of a combination of formoterol and budesonide
runParameters: female, Gottingen, minipig, in vivo, iv, 0.4 ug/kg, AUCinf, formoterol 0.4 μg/kg IV in combination with budesonide, female 2-0623
measureName: AUC(0-inf) (ng·h/mL)
Quick reminder: number only, in ng·h/mL, skip the unit.

Looking for the measured AUC(0-inf) of COc1ccc(CC(C)NCC(O)c2ccc(O)c(NC=O)c2)cc1 (stereo not shown) , can you help?
0.328
